Hey, just so you know, these numbers are from patent EP3529257B1.

- Study Target: GluN2B glutamate receptors (Homo sapiens, UniProt Q05586+Q13224)
- Construct: expressed in transfected cells; host or cells: mammalian cells (line not described for GluN2B)
- Sequence (Q13224 27-1484, other chains not shown): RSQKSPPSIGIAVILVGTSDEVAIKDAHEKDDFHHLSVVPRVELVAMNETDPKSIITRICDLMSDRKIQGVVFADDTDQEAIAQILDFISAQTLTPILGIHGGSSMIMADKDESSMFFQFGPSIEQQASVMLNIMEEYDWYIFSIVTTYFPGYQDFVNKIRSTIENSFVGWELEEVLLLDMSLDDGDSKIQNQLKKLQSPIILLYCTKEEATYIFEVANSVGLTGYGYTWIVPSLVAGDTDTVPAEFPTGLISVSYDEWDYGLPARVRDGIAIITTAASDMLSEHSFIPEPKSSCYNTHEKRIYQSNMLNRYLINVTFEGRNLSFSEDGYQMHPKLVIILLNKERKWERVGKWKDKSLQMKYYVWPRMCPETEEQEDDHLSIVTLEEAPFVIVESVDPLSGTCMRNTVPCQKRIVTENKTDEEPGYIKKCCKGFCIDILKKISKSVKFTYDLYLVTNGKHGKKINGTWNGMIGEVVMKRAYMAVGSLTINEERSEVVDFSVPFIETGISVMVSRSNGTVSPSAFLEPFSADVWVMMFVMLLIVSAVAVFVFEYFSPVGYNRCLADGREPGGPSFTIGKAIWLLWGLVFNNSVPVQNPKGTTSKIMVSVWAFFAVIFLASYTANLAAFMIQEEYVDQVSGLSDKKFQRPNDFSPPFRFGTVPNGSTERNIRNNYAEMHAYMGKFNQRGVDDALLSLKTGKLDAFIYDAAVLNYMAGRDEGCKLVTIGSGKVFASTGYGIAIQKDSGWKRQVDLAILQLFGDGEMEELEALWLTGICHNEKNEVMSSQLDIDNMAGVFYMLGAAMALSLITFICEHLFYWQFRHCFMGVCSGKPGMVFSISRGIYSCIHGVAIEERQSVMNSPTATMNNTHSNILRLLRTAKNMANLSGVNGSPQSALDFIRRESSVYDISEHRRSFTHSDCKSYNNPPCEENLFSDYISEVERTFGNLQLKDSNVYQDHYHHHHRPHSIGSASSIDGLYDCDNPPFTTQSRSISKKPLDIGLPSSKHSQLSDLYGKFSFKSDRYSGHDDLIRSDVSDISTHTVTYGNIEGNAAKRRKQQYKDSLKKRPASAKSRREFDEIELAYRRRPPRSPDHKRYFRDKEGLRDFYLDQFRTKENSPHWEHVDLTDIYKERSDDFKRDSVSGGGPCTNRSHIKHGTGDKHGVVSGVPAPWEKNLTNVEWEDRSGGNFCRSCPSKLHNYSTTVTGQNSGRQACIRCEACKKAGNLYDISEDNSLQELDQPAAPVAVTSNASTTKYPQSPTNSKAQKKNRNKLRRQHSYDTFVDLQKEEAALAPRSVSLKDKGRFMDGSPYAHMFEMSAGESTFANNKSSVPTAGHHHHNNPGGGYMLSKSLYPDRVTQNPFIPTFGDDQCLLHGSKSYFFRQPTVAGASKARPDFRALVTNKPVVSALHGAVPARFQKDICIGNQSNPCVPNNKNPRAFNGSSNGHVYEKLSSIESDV
- Assay Notes: Whole-cell patch clamp of mammalian cells (Ionworks Barracuda), positive allosteric modulation (PAM) of NMDA receptor, 2B
- Format: cell-based
- Run Parameters: % activation of current elicited with EC20 L-glutamate and 30 µM glycine
I'd be grateful if you could share measured Avg Emax 2B (%) for these entries.
Write down the numeric answer in % and omit the unit.

Which value of Avg Emax 2B (%) has been reported for C[C@H](CCC[C@@H](C)O)[C@H]1CC[C@H]2[C@@H]3CC[C@H]4C[C@](O)(C(F)(F)F)CC[C@]4(C)[C@H]3CC[C@]12C [Compound 112] in the records?
150.8

Which value of Avg Emax 2B (%) has been reported for C[C@H](O)CCC[C@@H](C)[C@H]1CC[C@H]2[C@@H]3CC[C@H]4C[C@](O)(C(F)(F)F)CC[C@]4(C)[C@H]3CC[C@]12C [Compound 2113] in the records?
285.0

Request the reported Avg Emax 2B (%) associated with CC[C@]1(O)CC[C@H]2C(=CC[C@@H]3[C@@H]2CC[C@]2(C)[C@@H]([C@H](C)CCCC4(O)CCC(C)(C)CC4)CC[C@@H]32)C1 [Compound 10317]
59.9

----------
- Study Target: GlunN1/GluN2A glutamate receptors (Homo sapiens, UniProt Q05586+Q12879)
- Sequence (Q12879 23-1464, other chains not shown): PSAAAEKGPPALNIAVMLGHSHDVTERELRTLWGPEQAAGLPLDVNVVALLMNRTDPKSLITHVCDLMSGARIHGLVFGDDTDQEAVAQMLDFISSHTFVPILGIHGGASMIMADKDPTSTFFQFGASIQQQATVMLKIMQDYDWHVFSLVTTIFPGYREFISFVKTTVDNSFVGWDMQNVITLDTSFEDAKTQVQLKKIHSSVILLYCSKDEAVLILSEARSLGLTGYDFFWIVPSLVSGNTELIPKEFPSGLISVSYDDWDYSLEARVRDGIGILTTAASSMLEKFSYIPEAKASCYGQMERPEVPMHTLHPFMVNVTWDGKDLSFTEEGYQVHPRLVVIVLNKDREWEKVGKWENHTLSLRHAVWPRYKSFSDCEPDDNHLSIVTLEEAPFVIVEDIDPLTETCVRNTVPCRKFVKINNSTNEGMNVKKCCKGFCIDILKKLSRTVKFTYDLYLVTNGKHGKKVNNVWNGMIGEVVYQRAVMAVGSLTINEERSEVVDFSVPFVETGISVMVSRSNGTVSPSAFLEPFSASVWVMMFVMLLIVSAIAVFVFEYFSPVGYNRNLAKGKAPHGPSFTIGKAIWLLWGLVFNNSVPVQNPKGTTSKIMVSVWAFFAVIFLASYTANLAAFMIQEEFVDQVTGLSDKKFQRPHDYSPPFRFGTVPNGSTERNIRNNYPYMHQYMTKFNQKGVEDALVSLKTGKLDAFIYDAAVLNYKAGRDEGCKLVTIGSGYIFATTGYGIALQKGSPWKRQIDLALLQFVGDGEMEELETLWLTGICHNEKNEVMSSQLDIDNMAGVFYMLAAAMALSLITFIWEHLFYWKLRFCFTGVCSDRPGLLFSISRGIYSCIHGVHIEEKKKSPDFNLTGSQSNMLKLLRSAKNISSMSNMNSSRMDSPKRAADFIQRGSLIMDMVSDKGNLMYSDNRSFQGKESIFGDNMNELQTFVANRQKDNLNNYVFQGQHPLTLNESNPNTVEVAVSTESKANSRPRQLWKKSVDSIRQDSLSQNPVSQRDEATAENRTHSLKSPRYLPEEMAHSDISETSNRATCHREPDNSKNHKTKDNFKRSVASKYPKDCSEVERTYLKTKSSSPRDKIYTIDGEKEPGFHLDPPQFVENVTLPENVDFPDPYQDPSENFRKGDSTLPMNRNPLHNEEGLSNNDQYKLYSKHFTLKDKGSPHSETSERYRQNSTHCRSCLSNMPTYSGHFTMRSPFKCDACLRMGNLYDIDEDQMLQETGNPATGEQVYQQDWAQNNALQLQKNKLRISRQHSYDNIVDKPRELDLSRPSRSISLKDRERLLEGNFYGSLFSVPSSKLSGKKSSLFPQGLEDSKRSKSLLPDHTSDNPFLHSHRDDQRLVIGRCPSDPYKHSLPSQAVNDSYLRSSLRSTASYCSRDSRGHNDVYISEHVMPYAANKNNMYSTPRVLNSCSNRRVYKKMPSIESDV
- Assay Notes: Whole-cell patch clamp of mammalian cells (Ionworks Barracuda), positive allosteric modulation (PAM) of NMDA receptor, 2A
- Run Parameters: HEK293 cells; co-application with EC20 L-glutamate and 30 µM glycine; 8-point concentration-response
- Method: The measurements were perfomed using Ion Works Barracuda platform following this procedure: • Electrophysiological Procedures: • a) Intracellular solution (mM): 50 mM CsCl, 90 mM CsF, 2 mM MgCl2, 5 mM EGTA, 10 mM HEPES. […] The maximal amplitude of the evoked currents are measured and defined as Peak Current Amplitude (PCA).
Experimental Endpoint: EC50 (nM)
Report as a plain number; the unit nM is understood.

// returns reported EC50 for input C[C@H](CCC1(O)CCC(OC(F)F)CC1)[C@H]1CC[C@H]2[C@@H]3CC[C@H]4C[C@](O)(C(F)(F)F)CC[C@]4(C)[C@H]3CC[C@]12C (stereo partly shown)
33.6

Given the compound C[C@H](O)CCC[C@@H](C)[C@H]1CC[C@H]2[C@@H]3CC[C@H]4C[C@](O)(C(F)(F)F)CC[C@]4(C)[C@H]3CC[C@]12C , what is its reported EC50?
380

I am curious: what EC50 value has been reported for C[C@H](CCC(O)Cc1ccccc1)[C@H]1CC[C@H]2[C@@H]3CC=C4C[C@@](C)(O)CC[C@]4(C)[C@H]3CC[C@]12C (stereo partly shown) ?
701

Data request, read-out EC50, for C[C@H](CCC1(O)CCOCC1)[C@H]1CC[C@H]2[C@@H]3CC[C@H]4C[C@](O)(C(F)(F)F)CC[C@]4(C)[C@H]3CC[C@]12C
117

// query EC50 value for entry CC(C)[C@@H](O)CC[C@@H](C)[C@H]1CC[C@H]2[C@@H]3CC[C@H]4C[C@@](C)(O)CC[C@@H]4[C@H]3CC[C@]12C
671
